For each entry below, report its PBM binding z-score value.
Tested on: RXRa homodimer (NR concentration 180 nM)
EXPERIMENT SUMMARY: PBM binding z-score (relative to random genomic background probes); higher = stronger binding; sequences stand for … in GC…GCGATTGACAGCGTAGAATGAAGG
Could you keep your reply to the number by itself?

input: Tell me its PBM binding z-score given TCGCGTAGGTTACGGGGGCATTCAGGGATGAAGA as the entry.
output: 3.08

input: Tell me its PBM binding z-score given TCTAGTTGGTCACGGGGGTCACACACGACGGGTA as the entry.
output: 6.5

input: Tell me its PBM binding z-score given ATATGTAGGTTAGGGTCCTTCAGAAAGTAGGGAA as the entry.
output: 0.851

input: Tell me its PBM binding z-score given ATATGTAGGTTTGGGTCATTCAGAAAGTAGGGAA as the entry.
output: 2.05

input: Tell me its PBM binding z-score given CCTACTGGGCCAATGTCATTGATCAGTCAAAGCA as the entry.
output: -0.139

input: Tell me its PBM binding z-score given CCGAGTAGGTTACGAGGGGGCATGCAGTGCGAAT as the entry.
output: 2.12

input: Tell me its PBM binding z-score given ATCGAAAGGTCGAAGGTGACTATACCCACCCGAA as the entry.
output: 4.99

input: Tell me its PBM binding z-score given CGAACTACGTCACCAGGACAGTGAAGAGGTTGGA as the entry.
output: 0.256

input: Tell me its PBM binding z-score given GCTGCTAGGTCAGGATGGTCAGCTAACGGGTACG as the entry.
output: 1.18

input: Tell me its PBM binding z-score given TCGAATAGGTTACGGGGGCATTCAGGGATGAAGA as the entry.
output: 3.99

input: Tell me its PBM binding z-score given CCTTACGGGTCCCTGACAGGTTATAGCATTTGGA as the entry.
output: 0.295

input: Tell me its PBM binding z-score given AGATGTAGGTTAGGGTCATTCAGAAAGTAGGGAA as the entry.
output: 4.81

input: Tell me its PBM binding z-score given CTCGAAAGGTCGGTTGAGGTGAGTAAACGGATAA as the entry.
output: 2.46

input: Tell me its PBM binding z-score given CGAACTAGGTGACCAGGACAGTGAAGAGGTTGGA as the entry.
output: 0.65

input: Tell me its PBM binding z-score given TCAGATAGGTAAAGGTGAAAGTCGAACGATATGA as the entry.
output: 2.33

input: Tell me its PBM binding z-score given TAGCCTAGGTCATTCAGGGGCTAGTATAGAAAGC as the entry.
output: 2.89

====

System: VDR homodimer (NR concentration 270 nM)
EXPERIMENT SUMMARY: PBM binding z-score (relative to random genomic background probes); higher = stronger binding; sequences stand for … in GC…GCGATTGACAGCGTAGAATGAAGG
For each entry below, report its PBM binding z-score value.
Could you keep your reply to the number by itself?

input: Tell me its PBM binding z-score given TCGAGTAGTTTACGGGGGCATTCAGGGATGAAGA as the entry.
output: 3.23

input: Tell me its PBM binding z-score given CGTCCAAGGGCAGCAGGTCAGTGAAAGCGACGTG as the entry.
output: 0.0968

input: Tell me its PBM binding z-score given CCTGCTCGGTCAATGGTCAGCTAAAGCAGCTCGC as the entry.
output: -0.799

input: Tell me its PBM binding z-score given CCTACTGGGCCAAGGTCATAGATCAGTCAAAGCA as the entry.
output: 1.92

input: Tell me its PBM binding z-score given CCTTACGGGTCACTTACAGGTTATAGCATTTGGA as the entry.
output: 1.66

input: Tell me its PBM binding z-score given CATACACGGTCAGCTAGGCCAGAGTAGGGACGGC as the entry.
output: -0.286

input: Tell me its PBM binding z-score given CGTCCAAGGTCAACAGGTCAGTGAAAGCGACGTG as the entry.
output: 2.51

input: Tell me its PBM binding z-score given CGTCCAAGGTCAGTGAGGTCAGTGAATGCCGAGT as the entry.
output: 5.33

input: Tell me its PBM binding z-score given ATATGGAGGTTAGGGTCATTCAGAAAGTAGGGAA as the entry.
output: 3.4

input: Tell me its PBM binding z-score given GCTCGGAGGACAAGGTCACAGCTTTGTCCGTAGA as the entry.
output: 1.96

input: Tell me its PBM binding z-score given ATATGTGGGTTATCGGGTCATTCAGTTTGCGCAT as the entry.
output: 4.15

input: Tell me its PBM binding z-score given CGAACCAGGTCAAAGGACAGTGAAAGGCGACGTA as the entry.
output: 1.15

input: Tell me its PBM binding z-score given ATATGTAGGTTATCGGGTCATTCATTTTGCGCAT as the entry.
output: 3

input: Tell me its PBM binding z-score given TATACAGGGTCTAAGGCCAGAGTACGAATGTCGA as the entry.
output: 1.12

input: Tell me its PBM binding z-score given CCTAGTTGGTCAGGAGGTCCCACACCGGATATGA as the entry.
output: 0.335

input: Tell me its PBM binding z-score given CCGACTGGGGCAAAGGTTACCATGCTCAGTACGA as the entry.
output: -0.359

input: Tell me its PBM binding z-score given AGTCAAAGTTGATCTAGGTAACGTAAGATATGCT as the entry.
output: -0.278

input: Tell me its PBM binding z-score given CCTACTGGGCCAAGGTCATTGAGCAGTCAAAGCA as the entry.
output: 2.65

input: Tell me its PBM binding z-score given ATCGAAAGGTCGCAGGTGAGTATACCCACCCGAA as the entry.
output: 0.597

input: Tell me its PBM binding z-score given ATACCAAGGTCATCGTGAGGTCGTTGATACTAAC as the entry.
output: 5.41

input: Tell me its PBM binding z-score given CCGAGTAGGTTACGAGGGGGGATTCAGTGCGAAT as the entry.
output: 1.94

input: Tell me its PBM binding z-score given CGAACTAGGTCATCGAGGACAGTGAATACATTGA as the entry.
output: 2.73

====

Test system: LXRb:RXRa (NR concentration 270 nM, RXRa partner concentration 90 nM)
EXPERIMENT SUMMARY: PBM binding z-score (relative to random genomic background probes); higher = stronger binding; sequences stand for … in GC…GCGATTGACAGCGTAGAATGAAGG
REPORTED ENDPOINT: PBM binding z-score
Could you keep your reply to the number by itself?

input: Tell me its PBM binding z-score given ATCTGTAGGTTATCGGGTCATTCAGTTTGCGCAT as the entry.
output: 3.06

input: Tell me its PBM binding z-score given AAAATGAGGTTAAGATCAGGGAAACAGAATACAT as the entry.
output: 2.1

input: Tell me its PBM binding z-score given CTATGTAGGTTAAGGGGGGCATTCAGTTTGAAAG as the entry.
output: 6.04

input: Tell me its PBM binding z-score given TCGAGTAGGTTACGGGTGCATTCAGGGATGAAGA as the entry.
output: 0.94

input: Tell me its PBM binding z-score given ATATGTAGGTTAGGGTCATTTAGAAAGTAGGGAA as the entry.
output: 4.59

input: Tell me its PBM binding z-score given CTATGTAGTTTAAGGGGGTCATTCAGTTTGAAAG as the entry.
output: 6.25

input: Tell me its PBM binding z-score given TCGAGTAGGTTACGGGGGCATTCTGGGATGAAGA as the entry.
output: 5.03

input: Tell me its PBM binding z-score given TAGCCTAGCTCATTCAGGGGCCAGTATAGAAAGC as the entry.
output: -0.368

input: Tell me its PBM binding z-score given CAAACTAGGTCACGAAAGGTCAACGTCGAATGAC as the entry.
output: 7.06

input: Tell me its PBM binding z-score given ATATGTAGGTTAGGGTCATTCATAAAGTAGGGAA as the entry.
output: 4.64

input: Tell me its PBM binding z-score given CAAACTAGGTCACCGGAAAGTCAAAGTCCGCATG as the entry.
output: 2.79

input: Tell me its PBM binding z-score given CCTCGGAGGTCAGAAGGTCAGAGCTGTCCGCTTT as the entry.
output: 3.83

input: Tell me its PBM binding z-score given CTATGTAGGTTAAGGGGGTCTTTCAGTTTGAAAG as the entry.
output: 3.78

input: Tell me its PBM binding z-score given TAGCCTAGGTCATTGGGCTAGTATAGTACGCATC as the entry.
output: 1.81

input: Tell me its PBM binding z-score given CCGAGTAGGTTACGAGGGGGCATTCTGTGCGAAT as the entry.
output: 6.24

input: Tell me its PBM binding z-score given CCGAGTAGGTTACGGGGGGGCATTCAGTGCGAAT as the entry.
output: 7.21
